Source: patent US20260242735A1

target.or.test.system: human CD33 H45A (human, UniProt P20138 18-364)
Sequence (P20138 18-364 H45A limits assumed): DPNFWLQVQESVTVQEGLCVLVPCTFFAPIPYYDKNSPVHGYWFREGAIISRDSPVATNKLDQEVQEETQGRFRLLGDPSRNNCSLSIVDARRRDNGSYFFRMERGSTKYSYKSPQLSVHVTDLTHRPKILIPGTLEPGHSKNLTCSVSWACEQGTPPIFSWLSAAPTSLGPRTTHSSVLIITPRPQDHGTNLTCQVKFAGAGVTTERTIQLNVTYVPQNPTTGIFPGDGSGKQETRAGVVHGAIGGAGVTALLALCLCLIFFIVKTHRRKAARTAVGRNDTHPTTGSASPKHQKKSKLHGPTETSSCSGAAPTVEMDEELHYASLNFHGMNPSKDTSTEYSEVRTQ
test.details: alanine scan, flow cytometry;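 also: HEK293-T cells transiently expressing single-residue alanine mutants of CD33 (alanine swapped to serine), antibody binding read by fluorescence in duplicate, background-subtracted, expressed relative to wild-type CD33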
reported.metric: Mean % WT Binding (% WT)
API: value field is a number in % WT; no unit string.

# binder Refmab #3 (antibody, V domains shown, Full-length format is human IgG1 Fc silent (PG-LALA); The alanine scan used IgG or Fab) VH: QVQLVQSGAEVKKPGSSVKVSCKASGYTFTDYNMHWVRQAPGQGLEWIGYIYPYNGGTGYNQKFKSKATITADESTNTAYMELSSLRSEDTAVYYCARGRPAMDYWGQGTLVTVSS VL: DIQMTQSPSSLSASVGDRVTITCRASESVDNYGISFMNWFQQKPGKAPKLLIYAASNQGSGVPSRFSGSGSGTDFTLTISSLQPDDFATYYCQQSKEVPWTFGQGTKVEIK ; its Mean % WT Binding = 55.1
